- measured.target: hMAO-A (Homo sapiens)
- Construct: purchased Sigma M7316
- Sequence (P21397 1-527): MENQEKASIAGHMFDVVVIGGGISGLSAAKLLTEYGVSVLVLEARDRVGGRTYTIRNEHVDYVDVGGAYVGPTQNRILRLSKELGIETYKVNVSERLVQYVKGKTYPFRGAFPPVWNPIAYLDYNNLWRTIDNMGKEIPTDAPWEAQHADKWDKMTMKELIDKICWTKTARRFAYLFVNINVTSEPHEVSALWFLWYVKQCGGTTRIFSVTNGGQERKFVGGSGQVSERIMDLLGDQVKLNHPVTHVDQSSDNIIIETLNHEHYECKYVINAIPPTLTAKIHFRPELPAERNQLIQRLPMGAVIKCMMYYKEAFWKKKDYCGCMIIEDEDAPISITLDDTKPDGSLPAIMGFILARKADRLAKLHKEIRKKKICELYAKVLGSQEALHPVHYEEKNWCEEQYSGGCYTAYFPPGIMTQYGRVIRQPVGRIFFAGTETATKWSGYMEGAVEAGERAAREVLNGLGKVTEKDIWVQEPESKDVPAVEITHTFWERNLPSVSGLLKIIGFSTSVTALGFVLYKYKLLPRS
- experiment: MAO-A inhibition assay
- Assay type: biochemical
- condition.context: up to 30 μM; No = no inhibition
measure: hMAO-A inhibition up to 30 μM

COC(=O)c1cccc(COc2ccc3c(=O)c(-c4ccc(O)cc4)coc3c2)c1 [PT-33]; No
O=c1c(-c2ccc(O)cc2)coc2cc(OCc3nc(-c4ccccc4)no3)ccc12 [PT-43]; No
O=c1c(-c2ccc(O)cc2)coc2cc(OCc3noc(-c4ccc(C(F)(F)F)cc4)n3)ccc12 [PT-38]; No
O=c1c(-c2ccc(O)cc2)coc2cc(OCc3nc(-c4ccc(Cl)cc4)no3)ccc12 [PT-44]; No
NC(=O)c1ccc(COc2ccc3c(=O)c(-c4ccc(O)cc4)coc3c2)cc1 [PT-37]; No

Query molecule follows.
Qu. I'd like to know its hMAO-A inhibition up to 30 μM. The molecule in question is O=c1c(-c2ccc(O)cc2)coc2cc(OCc3noc(-c4cc(F)cc(C(F)(F)F)c4)n3)ccc12 [PT-29]
Ans. No

Source of measurements: patent US8158810B2
